experiment: Enzymatic kinetic measurements of purified proteins with compound A as substrate; type: biochemical; conditions: purified protein, compound A 0-1000 μM as substrate; further: unit not given here
assay readout: Vmax
API doc: respond with a numeric literal and nothing else, no unit.

Which Vmax value belongs to SEQ ID NO: 42: RdpA mutant L82H + V187L + F182W + G103L (protein) MHAALSPLSQRFERIAVQPLTGVLGAEITGVDLREPLDDSTWNEILDAFHTYQVIYFPGQAITNEQHIAFSRRFGPVDPVPHLKSIEGYPEVQMIRREANESLRVIGDDWHTDSTFLDAPPAAVVMRAIDVPEHGGDTGFLSMYTAWETLSPTMQATIEGLNVVHSATRVFGSLYQAQNRRWSNTSLKVMDVDAGDRETVHPLVVTHPGSGRKGLYVNQVYCQRIEGMTDAESKPLLQFLYEHATRFDFTCRVRWKKDQVLVWDNLCTMHRAVPDYAGKFRYLTRTTVGGVRPAR ? 99.6

Item under review: SEQ ID NO: 122: RdpA mutant L82H + V187L + F182W + G103L + R104G + V105Y (protein) MHAALSPLSQRFERIAVQPLTGVLGAEITGVDLREPLDDSTWNEILDAFHTYQVIYFPGQAITNEQHIAFSRRFGPVDPVPHLKSIEGYPEVQMIRREANESLGYIGDDWHTDSTFLDAPPAAVVMRAIDVPEHGGDTGFLSMYTAWETLSPTMQATIEGLNVVHSATRVFGSLYQAQNRRWSNTSLKVMDVDAGDRETVHPLVVTHPGSGRKGLYVNQVYCQRIEGMTDAESKPLLQFLYEHATRFDFTCRVRWKKDQVLVWDNLCTMHRAVPDYAGKFRYLTRTTVGGVRPAR . Reported Vmax? 127.9

These entries and their values trace back to patent US20250163449A1.
